assay: Volume of distribution at steady state in iv dosed rat; assay type: ADME, organism-based; details: in vivo, read-out: Vdss
measure name: Vd (L/kg)

>>> print(df.to_string())
                          smiles_structure  experimental_value
0  COc1ccc2nc(COc3cc4c(cc3Cl)OCO4)[nH]c2c1                 1.2

* * *

molecular target: Bombesin receptor subtype-3 (Homo sapiens, UniProt P32247); assay: Agonist activity at recombinant BRS-3 receptor expressed in baculovirus-transduced HEK293 cells assessed as intracellular calcium mobilization by FLIPR assay; assay type: functional
Sequence (P32247 whole entry): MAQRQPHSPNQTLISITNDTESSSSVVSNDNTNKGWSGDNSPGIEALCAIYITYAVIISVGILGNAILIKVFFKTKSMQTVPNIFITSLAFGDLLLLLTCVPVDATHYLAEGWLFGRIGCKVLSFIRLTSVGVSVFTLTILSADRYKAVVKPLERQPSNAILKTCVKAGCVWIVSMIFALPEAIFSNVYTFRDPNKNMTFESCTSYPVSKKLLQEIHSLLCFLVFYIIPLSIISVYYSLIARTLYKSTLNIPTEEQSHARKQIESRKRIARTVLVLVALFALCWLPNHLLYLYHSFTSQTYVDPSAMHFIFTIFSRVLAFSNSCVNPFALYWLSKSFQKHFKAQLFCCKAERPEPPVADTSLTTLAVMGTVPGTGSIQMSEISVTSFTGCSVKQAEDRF
Square brackets hold non-standard residues; d marks the D form. Peptide text beside a SMILES is read from it. Nle = CCCC[C@H](N)C(=O)O; βAla = NCCC(=O)O
log10 EC50 overview
measure name: log10 EC50 (log10 of the value in µM)

compound	target system	log10 EC50
COc1ccc2nc(CCc3cc4c(cc3Cl)OCO4)[nH]c2c1	Bombesin receptor subtype-3 (Homo sapiens, UniProt P32247)	-0.68
CCCC[C@H](NC(=O)[C@H](Cc1ccccc1)NC(=O)[C@H](Cc1c[nH]cn1)NC(=O)CCNC(=O)[C@@H](NC(=O)[C@H](C)NC(=O)[C@H](Cc1c[nH]c2ccccc12)NC(=O)[C@H](CCC(N)=O)NC(=O)[C@H](N)Cc1ccccc1)C(C)C)C(N)=O (H-[dF]QWAV[βAla]HF[Nle]-NH2)	Bombesin receptor subtype-3 (Homo sapiens, UniProt P32247)	-2.41
COc1ccc2nc(COc3cc4c(cc3Cl)OCO4)[nH]c2c1	Bombesin receptor subtype-3 (Homo sapiens, UniProt P32247)	-0.29
COc1ccc2[nH]c(SCc3ncc(C)c(OC)c3C)nc2c1 [UFIPRAZOLE]	Bombesin receptor subtype-3 (Homo sapiens, UniProt P32247)	0.59
COc1ccc2[nH]c([S+]([O-])Cc3ncc(C)c(OC)c3C)nc2c1 (stereo not drawn) [OMEPRAZOLE]	Bombesin receptor subtype-3 (Homo sapiens, UniProt P32247)	1.15
COc1ccc2nc(C(C)Cc3cc4c(cc3Cl)OCO4)[nH]c2c1 (stereo not drawn)	Bombesin receptor subtype-3 (Homo sapiens, UniProt P32247)	-0.46
FC(F)(F)c1ccc2nc(COc3cc4c(cc3Cl)OCO4)[nH]c2c1	Bombesin receptor subtype-3 (Homo sapiens, UniProt P32247)	-0.62
COc1cc(CSc2nc3ccc(OC)cc3[nH]2)cc(OC)c1	Bombesin receptor subtype-3 (Homo sapiens, UniProt P32247)	0.20
COc1ccc2nc(SCc3cc4c(cc3Cl)OCO4)[nH]c2c1	Bombesin receptor subtype-3 (Homo sapiens, UniProt P32247)	-0.42
Clc1ccc2nc(COc3cc4c(cc3Cl)OCO4)[nH]c2c1	Bombesin receptor subtype-3 (Homo sapiens, UniProt P32247)	-0.24
